Target: GPR40 (Homo sapiens)
Sequence (O14842 whole entry): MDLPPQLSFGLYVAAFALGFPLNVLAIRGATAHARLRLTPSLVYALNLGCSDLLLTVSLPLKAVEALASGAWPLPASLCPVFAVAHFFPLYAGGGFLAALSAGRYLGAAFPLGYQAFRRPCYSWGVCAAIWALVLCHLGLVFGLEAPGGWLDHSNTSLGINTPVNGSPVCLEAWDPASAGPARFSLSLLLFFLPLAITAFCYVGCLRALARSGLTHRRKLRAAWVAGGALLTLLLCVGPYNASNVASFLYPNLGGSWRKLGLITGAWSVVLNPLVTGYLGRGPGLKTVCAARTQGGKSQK
Assay: IP1 accumulation assay (Cisbio IP-One HTRF) in HEK293 cells stably expressing GPR40
Details: HEK293 cells stably expressing GPR40, 37° C. for 2 hours, % Effect relative to AMG-1638 positive control
pEC50: −log10 of the molar value.
Here, each record is paired with measured pEC50 data.

Worked examples follow.
| given_smiles | pEC50 |
| --- | --- |
| CCCCCCc1cn(Cc2cc3ccc(OC)c(CN4CCC([C@H]5CCc6ccc([C@H](C7CC7)[C@H](C)C(=O)O)cc6O5)CC4)c3o2)nn1 | 5.30 to 6.00 |
| CCCCCCc1cn(CC(C)(C)c2cc(COc3cccc([C@@H](CC(=O)O)C4CC4)c3)ccc2-c2cc(OC)ccc2F)nn1 | 6.60 to 7.30 |

Turning to the following compound.
pEC50 measured on CCCCCCc1cn(CCc2ccc(OC(F)(F)F)c(CN3CCC([C@H]4CCc5ccc([C@H](C6CC6)[C@H](C)C(=O)O)cc5O4)CC3)c2)nn1 = 7.30 to 9.00

* * *

Biological target: GPR40 (Homo sapiens)
Experiment: IP1 accumulation assay (Cisbio IP-One HTRF) in HEK293 cells stably expressing GPR40
Conditions: HEK293 cells stably expressing GPR40, 37° C. for 2 hours, % Effect relative to AMG-1638 positive control
Measured EC50 values are reported for all entries that follow.

Reference set, count: 4
| compound | EC50 |
| --- | --- |
| CCCCCCn1cc(-c2ccc(OC(F)(F)F)c(CN3CCC([C@H]4CCc5ccc([C@H](C6CC6)[C@H](C)C(=O)O)cc5O4)CC3)c2)nn1 [compound 187] | 50 to 250 nM |
| COc1ccc(F)c(-c2ccc(COc3cccc([C@@H](CC(=O)O)C4CC4)c3)cc2C(C)(C)Cn2cc(CCCCCCCCCCCCCCCCCC(=O)O)nn2)c1 [Compound No. 226] | 50 to 250 nM |
| C[C@H](C(=O)O)[C@H](c1ccc2c(c1)O[C@H](C1CCN(Cc3cc(N=[N+]=[N-])ccc3OC(F)(F)F)CC1)CC2)C1CC1 [compound 194] | 1 to 50 nM |
| COC(=O)CCCCCCCCCCCCCCCCCc1cn(CC(C)(C)c2cc(COc3cccc([C@@H](CC(=O)O)C4CC4)c3)ccc2-c2cc(OC)ccc2F)nn1 [Compound No. 227] | ≥ 5000 nM |

Form field EC50, entry C#CC(C)(C)c1cc(COc2cccc([C@@H](CC(=O)O)C3CC3)c2)ccc1-c1cc(OC)ccc1F [Compound No. 217] : 1 to 50 nM

# EC50 (compound: COc1ccc(F)c(-c2ccc(COc3cccc([C@@H](CC(=O)O)C4CC4)c3)cc2C(C)(C)n2cc(CCCCCCCCCCCCCCCCCC(=O)O)nn2)c1 [Compound No. 220] ) is 1000 to 5000 nM

* * *

Biological target: GPR40 (Homo sapiens)
Assay: IP1 accumulation assay (Cisbio IP-One HTRF) in HEK293 cells stably expressing GPR40
Conditions: HEK293 cells stably expressing GPR40, 37° C. for 2 hours, % Effect relative to AMG-1638 positive control
pEC50: −log10 of the molar value.
measurement_type: pEC50

| molecule | result_value |
| --- | --- |
| COc1ccc(F)c(-c2ccc(COc3cccc([C@@H](CC(=O)O)C4CC4)c3)cc2C(OCCCCN=[N+]=[N-])C(C)(C)C)c1 (some centres unmarked) [Compound No. 232] | 7.30 to 9.00 |
| COc1ccc(F)c(-c2ccc(COc3cccc([C@@H](CC(=O)O)C4CC4)c3)cc2C(C)(C)c2cn(CCCCCCCCCCCCCCCCCC(=O)O)nn2)c1 [Compound No. 221] | 6.00 to 6.60 |
| COc1ccc(F)c(-c2ccc(COc3cccc([C@@H](CC(=O)O)C4CC4)c3)cc2C(OC)C(C)(C)CN=[N+]=[N-])c1 (some centres unmarked) [Compound No. 236] | 7.30 to 9.00 |
| CCCCCCn1cc(COc2cc(COc3cccc([C@H](CC)CC(=O)O)c3)ccc2-c2cc(OC)ccc2F)nn1 [Compound No. 213] | 5.30 to 6.00 |

# C[C@H](C(=O)O)[C@H](c1ccc2c(c1)O[C@@H](C1CCN(Cc3cc(CN=[N+]=[N-])ccc3OC(F)(F)F)CC1)CC2)C1CC1 [Compound 201] with GPR40 (Homo sapiens): pEC50 is 7.30 to 9.00

# CCCCCCCCCCc1ccc(OC(F)(F)F)c(CN2CCC([C@H]3CCc4ccc([C@H](C5CC5)[C@H](C)C(=O)O)cc4O3)CC2)c1 [compound 205] with GPR40 (Homo sapiens): pEC50 is 6.60 to 7.30

Record C#Cc1ccc(OC(F)(F)F)c(CN2CCC([C@H]3CCc4ccc([C@H](C5CC5)[C@H](C)C(=O)O)cc4O3)CC2)c1 [compound 193] / GPR40 (Homo sapiens), pEC50 recorded as 7.30 to 9.00

Summary: C[C@H](C(=O)O)[C@H](c1ccc2c(c1)O[C@@H](C1CCN(Cc3cc(-c4cn(CCCCCCCCCCCCCCCCCC(=O)OCc5ccccc5)nn4)ccc3OC(F)(F)F)CC1)CC2)C1CC1 [compound 210] , GPR40 (Homo sapiens), pEC50 = 6.60 to 7.30
